Data provenance: patent EP1247803A2

targetOrTestSystem: PDGF-R (Homo sapiens)
Sequence (P09619 33-1106, species assumed): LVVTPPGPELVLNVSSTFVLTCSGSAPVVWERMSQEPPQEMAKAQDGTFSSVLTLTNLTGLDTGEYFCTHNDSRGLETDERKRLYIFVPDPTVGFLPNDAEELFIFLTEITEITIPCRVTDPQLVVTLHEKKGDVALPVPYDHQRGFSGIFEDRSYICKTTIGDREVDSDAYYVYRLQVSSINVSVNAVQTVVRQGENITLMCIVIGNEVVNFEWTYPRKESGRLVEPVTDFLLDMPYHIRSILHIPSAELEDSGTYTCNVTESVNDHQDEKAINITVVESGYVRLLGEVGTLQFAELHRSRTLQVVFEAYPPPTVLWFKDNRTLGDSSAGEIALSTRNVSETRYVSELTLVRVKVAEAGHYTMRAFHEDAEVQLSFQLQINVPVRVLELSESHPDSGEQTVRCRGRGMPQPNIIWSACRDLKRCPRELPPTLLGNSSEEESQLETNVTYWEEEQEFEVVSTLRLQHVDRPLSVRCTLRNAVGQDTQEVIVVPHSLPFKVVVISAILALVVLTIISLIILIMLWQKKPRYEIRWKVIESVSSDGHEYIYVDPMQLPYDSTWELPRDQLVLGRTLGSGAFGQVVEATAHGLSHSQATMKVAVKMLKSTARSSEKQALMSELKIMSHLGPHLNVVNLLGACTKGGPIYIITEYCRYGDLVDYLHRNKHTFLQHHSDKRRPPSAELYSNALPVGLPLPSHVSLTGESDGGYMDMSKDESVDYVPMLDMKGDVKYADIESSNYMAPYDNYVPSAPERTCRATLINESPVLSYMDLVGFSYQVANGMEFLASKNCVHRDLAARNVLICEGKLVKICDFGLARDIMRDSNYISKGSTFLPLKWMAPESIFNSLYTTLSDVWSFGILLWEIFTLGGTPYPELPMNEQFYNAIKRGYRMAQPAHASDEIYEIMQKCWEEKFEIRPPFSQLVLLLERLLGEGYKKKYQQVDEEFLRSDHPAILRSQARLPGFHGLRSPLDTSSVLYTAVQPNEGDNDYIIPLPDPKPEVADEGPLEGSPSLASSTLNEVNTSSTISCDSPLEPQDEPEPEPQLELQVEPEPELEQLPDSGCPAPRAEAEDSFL
measurementNotes: PDGF-R ELISA
Assay type: cell-based
Kindly supply the reported PDGF Kinase %Inhibition values for the records listed here.
Please answer using the number first and the unit second.

Example cases with answers are listed next.
>  <compound>
Cc1cc(C=C2C(=O)Nc3ccc(S(=O)(=O)Nc4ccc(C(F)(F)F)cc4)cc32)cc(C(C)(C)C)c1O [10726/E04]

>  <targetOrTestSystem>
PDGF-R (Homo sapiens)

>  <recordedMetric>
PDGF Kinase %Inhibition

>  <measured>
12.6%

$$$$
>  <compound>
O=C1Nc2c(Br)cc(Br)cc2C1=Cc1csc([N+](=O)[O-])c1 [10722/A09]

>  <targetOrTestSystem>
PDGF-R (Homo sapiens)

>  <recordedMetric>
PDGF Kinase %Inhibition

>  <measured>
21.5%

$$$$
>  <compound>
COc1c([N+](=O)[O-])cc(C=C2C(=O)Nc3ccc(CCCl)cc32)cc1C(C)(C)C [10733/G03]

>  <targetOrTestSystem>
PDGF-R (Homo sapiens)

>  <recordedMetric>
PDGF Kinase %Inhibition

>  <measured>
12.7%

$$$$
>  <compound>
O=C1Nc2c(Br)cc(Br)cc2C1=Cc1ccc(O)c(O)c1O [10723/A02]

>  <targetOrTestSystem>
PDGF-R (Homo sapiens)

>  <recordedMetric>
PDGF Kinase %Inhibition

>  <measured>
64.4%

$$$$
>  <compound>
Cc1cc2occ(C=C3C(=O)Nc4ccc(I)cc43)c(=O)c2cc1C [10731/B03]

>  <targetOrTestSystem>
PDGF-R (Homo sapiens)

>  <recordedMetric>
PDGF Kinase %Inhibition

>  <measured>
9.9%

$$$$
>  <compound>
CCCCN(CCCC)c1ccc(C=C2C(=O)Nc3ccc(S(=O)(=O)Nc4ccc(C(F)(F)F)cc4)cc32)cc1 [10722/E10]

>  <targetOrTestSystem>
PDGF-R (Homo sapiens)

>  <recordedMetric>
PDGF Kinase %Inhibition

>  <measured>
31.8%

$$$$

Please give PDGF Kinase %Inhibition, item by item, for the list that follows.
1. O=C(O)COc1ccccc1C=C1C(=O)Nc2ccc(I)cc21 [10728/B10]
2. Cc1cc(C=C2C(=O)Nc3ccc(Br)c(C)c32)ccc1O [10723/C06]
3. CNS(=O)(=O)c1ccc2c(c1)C(=Cc1ccc(N(C)C)cc1OC)C(=O)N2 [10728/D05]
4. COc1c(C)cc(C=C2C(=O)Nc3c(Br)cc(Br)cc32)cc1C [10733/A06]
5. Cc1c(Br)ccc2c1C(=Cc1cc(Cl)c(OCc3ccccc3)c(C(C)(C)C)c1)C(=O)N2 [10732/C10]

1: 2.7%; 2: 26.3%; 3: 7.2%; 4: -24.3%; 5: 5.8%

Please give PDGF Kinase %Inhibition, item by item, for the list that follows.
1. CCOC(=O)c1[nH]c(C=C2C(=O)Nc3ccc(Br)c(C)c32)c(C(=O)OC)c1C [10726/C03]
2. CCc1ccc(C=C2C(=O)Nc3ccc(Br)c(C)c32)s1 [10726/C10]
3. CNS(=O)(=O)c1ccc2c(c1)C(=Cc1ccc(N3CCOCC3)cc1)C(=O)N2 [10725/D08]
4. COc1ccc(C=C2C(=O)Nc3ccc(I)cc32)c2ccccc12 [10729/B03]
5. O=C1Nc2ccc(S(=O)(=O)Nc3ccc(C(F)(F)F)cc3)cc2C1=Cc1cc(Cl)cc(Cl)c1O [10734/E03]

["28.4%", "16.4%", "38.5%", "-9.4%", "27.2%"]

Please give PDGF Kinase %Inhibition, item by item, for the list that follows.
1. COc1cc(C=C2C(=O)Nc3ccc(CCCl)cc32)cc2c1OCO2 [10728/G11]
2. O=C1Nc2ccc(CCCl)cc2C1=Cc1ccc(C(F)(F)F)cc1 [10722/G11]

["-12.8%", "0.3%"]

====

targetOrTestSystem: EGFR (Homo sapiens, UniProt P00533)
Construct: Add 7 ug A431 cell lysate per well (EGFR source); endogenous in cells; host or cells: A431
Sequence (P00533 25-1210): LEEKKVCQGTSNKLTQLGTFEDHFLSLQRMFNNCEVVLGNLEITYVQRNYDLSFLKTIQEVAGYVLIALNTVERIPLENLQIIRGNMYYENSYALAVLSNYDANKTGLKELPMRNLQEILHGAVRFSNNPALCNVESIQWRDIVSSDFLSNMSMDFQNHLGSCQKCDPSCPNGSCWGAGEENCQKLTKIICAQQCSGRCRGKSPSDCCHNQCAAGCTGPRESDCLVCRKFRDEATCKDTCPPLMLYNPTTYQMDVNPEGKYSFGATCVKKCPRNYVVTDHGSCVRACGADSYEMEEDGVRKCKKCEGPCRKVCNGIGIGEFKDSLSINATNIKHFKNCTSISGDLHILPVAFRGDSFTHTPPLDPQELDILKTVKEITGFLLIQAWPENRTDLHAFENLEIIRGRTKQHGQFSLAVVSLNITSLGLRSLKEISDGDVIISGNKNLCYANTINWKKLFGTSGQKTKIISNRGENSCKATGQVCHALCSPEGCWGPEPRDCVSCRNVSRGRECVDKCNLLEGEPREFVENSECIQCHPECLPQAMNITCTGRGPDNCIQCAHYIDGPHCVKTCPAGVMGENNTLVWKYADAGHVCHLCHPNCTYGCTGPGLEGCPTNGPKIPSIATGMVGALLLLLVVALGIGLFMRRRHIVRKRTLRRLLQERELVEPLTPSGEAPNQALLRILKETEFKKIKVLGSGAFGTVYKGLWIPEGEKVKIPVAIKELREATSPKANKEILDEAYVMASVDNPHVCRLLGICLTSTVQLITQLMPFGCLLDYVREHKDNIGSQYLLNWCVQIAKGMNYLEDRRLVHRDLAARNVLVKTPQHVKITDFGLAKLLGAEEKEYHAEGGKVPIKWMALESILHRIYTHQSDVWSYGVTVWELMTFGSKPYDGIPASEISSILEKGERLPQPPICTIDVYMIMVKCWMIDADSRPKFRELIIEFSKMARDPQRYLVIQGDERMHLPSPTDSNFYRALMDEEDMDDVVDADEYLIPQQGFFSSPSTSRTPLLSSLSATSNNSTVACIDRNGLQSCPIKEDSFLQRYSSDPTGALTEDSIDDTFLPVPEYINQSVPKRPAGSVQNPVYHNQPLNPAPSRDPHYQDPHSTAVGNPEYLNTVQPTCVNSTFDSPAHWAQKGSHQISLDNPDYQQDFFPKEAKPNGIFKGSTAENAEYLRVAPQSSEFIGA
measurementNotes: EGFR ELISA assay (in vitro kinase activity, EGFR captured from A431 cell lysate)
Assay type: biochemical
Set-up: concentration or dose not given beside the values
recordedMetric: Biochem EGFR %Inhibition (%)
Numbers only, in %.

Example cases with answers are listed next.
>  <compound>
O=C1Nc2c(Br)cc(Br)cc2C1=CC(c1cccs1)C(F)(F)F (centres unmarked)

>  <u>
%

>  <Biochem EGFR %Inhibition>
5.1

$$$$
>  <compound>
O=C1Nc2ccc(I)cc2C1=Cc1cccc(F)c1O

>  <u>
%

>  <Biochem EGFR %Inhibition>
19.3

$$$$
>  <compound>
O=C1Nc2ccc(S(=O)(=O)Nc3ccc(C(F)(F)F)cc3)cc2C1=Cc1csc([N+](=O)[O-])c1

>  <u>
%

>  <Biochem EGFR %Inhibition>
4.1

$$$$
>  <compound>
COc1cc(C=C2C(=O)Nc3c(Br)cc(Br)cc32)cc(OC)c1

>  <u>
%

>  <Biochem EGFR %Inhibition>
28.0

$$$$
>  <compound>
CC(C)(C)c1cc(C=C2C(=O)Nc3ccc(I)cc32)cc(Br)c1O

>  <u>
%

>  <Biochem EGFR %Inhibition>
42.9

$$$$
>  <compound>
COc1ccc(C=C2C(=O)Nc3ccc(S(=O)(=O)Nc4ccc(C(F)(F)F)cc4)cc32)cc1

>  <u>
%

>  <Biochem EGFR %Inhibition>
-14.1

$$$$
>  <compound>
CNS(=O)(=O)c1ccc2c(c1)C(=Cc1ccc(O)c(Br)c1)C(=O)N2

>  <u>
%

>  <Biochem EGFR %Inhibition>
21.0

$$$$
>  <compound>
Cn1c(C=C2C(=O)Nc3c(Br)cc(Br)cc32)nc2ccccc21

>  <u>
%

>  <Biochem EGFR %Inhibition>
17.8

$$$$
>  <compound>
Cc1cc(C=C2C(=O)Nc3c(Br)cc(Br)cc32)sc1C

>  <u>
%

>  <Biochem EGFR %Inhibition>
59.0

$$$$
>  <compound>
CSc1ccc(C=C2C(=O)Nc3ccc(S(=O)(=O)Nc4ccc(C(F)(F)F)cc4)cc32)cc1

>  <u>
%

>  <Biochem EGFR %Inhibition>
19.5

$$$$

Please give Biochem EGFR %Inhibition, item by item, for the list that follows.
1. CSc1ccc(C=C2C(=O)Nc3ccc(S(=O)(=O)N4CCOCC4)cc32)s1
2. O=C1Nc2ccc(I)cc2C1=Cc1ccccn1
3. COC(=O)c1[nH]c(C)c(C=C2C(=O)Nc3c(Br)cc(Br)cc32)c1C(=O)OC
4. O=C1Nc2ccc(I)cc2C1=Cc1cc(Br)cc(Br)c1O

1: 35.2; 2: 69.0; 3: -10.6; 4: 65.5

Please give Biochem EGFR %Inhibition, item by item, for the list that follows.
1. Cc1c(Br)ccc2c1C(=Cc1ccc(F)cc1Cl)C(=O)N2
2. CCOC(=O)c1cc(C=C2C(=O)Nc3ccc(S(=O)(=O)NC)cc32)oc1C
3. O=C1Nc2c(Br)cc(Br)cc2C1=Cc1ccccc1

[-0.1, 20.0, 44.7]

Please give Biochem EGFR %Inhibition, item by item, for the list that follows.
1. COc1ccc(C=C2C(=O)Nc3ccc(S(=O)(=O)N4CCOCC4)cc32)cc1C(C)(C)C
2. Cc1c(Br)ccc2c1C(=Cc1cc3c([nH]1)CCCC3)C(=O)N2
3. CCOc1cccc(C=C2C(=O)Nc3ccc(CCCl)cc32)c1O
4. COc1cc(OC)c(C=C2C(=O)Nc3ccc(S(=O)(=O)Nc4ccc(C(F)(F)F)cc4)cc32)c(OC)c1
5. O=C1Nc2ccc(CCCl)cc2C1=Cc1ccc([N+](=O)[O-])cc1

1. -30.7
2. 68.1
3. 3.4
4. -42.0
5. 12.5

Please give Biochem EGFR %Inhibition, item by item, for the list that follows.
1. CC(C)(C)c1cc(C=C2C(=O)Nc3ccc(S(=O)(=O)Nc4ccc(C(F)(F)F)cc4)cc32)cc(Cl)c1OCc1ccccc1
2. CC(C)(C)c1cc(C=C2C(=O)Nc3ccc(I)cc32)cc(Br)c1OCc1ccccc1
3. CNS(=O)(=O)c1ccc2c(c1)C(=Cc1ccc(F)cc1F)C(=O)N2
4. O=C1Nc2ccc(S(=O)(=O)Nc3ccc(C(F)(F)F)cc3)cc2C1=Cc1cc(Cl)cc(Br)c1O

1: -3.3; 2: 7.8; 3: -2.5; 4: 82.1

Please give Biochem EGFR %Inhibition, item by item, for the list that follows.
1. O=C1Nc2ccc(CCCl)cc2C1=Cc1ccccn1
2. Cc1c(Br)ccc2c1C(=Cc1cccc(C#N)c1)C(=O)N2
3. COc1c(I)cc(C=C2C(=O)Nc3ccc(S(=O)(=O)N4CCOCC4)cc32)cc1C(C)(C)C
4. CC(C)(C)c1cc(C=C2C(=O)Nc3ccc(CCCl)cc32)ccc1OCc1ccccc1

-0.8
3.6
-21.5
-12.1

Please give Biochem EGFR %Inhibition, item by item, for the list that follows.
1. CNS(=O)(=O)c1ccc2c(c1)C(=Cc1cc(Br)cc(OC)c1O)C(=O)N2
2. CC(C)(C)c1cc(C=C2C(=O)Nc3ccc(I)cc32)cc([N+](=O)[O-])c1O
3. CNS(=O)(=O)c1ccc2c(c1)C(=Cc1cc([N+](=O)[O-])cc(CCl)c1O)C(=O)N2
4. CCOc1ccc(C=C2C(=O)Nc3ccc(Br)c(C)c32)cc1OC
5. CC(C)c1cc(C=C2C(=O)Nc3ccc(CCCl)cc32)cc(C(C)C)c1O

1. 38.3
2. 16.3
3. 44.5
4. 10.2
5. 3.2
